assay: Solubility of the compound in simulated gastric fluid; format: physicochemical
measured.attribute: solubility (µg/mL)

>>> df
                                smiles_code  observed_result
0  Cc1occc1C(=O)N1CCC2(CCN(C(=O)Nc3ccc(OC(F)(F)F)cc3)C2)CC1               79
1  O=C(NC12CC3CC(CC(C3)C1)C2)N1CCC2(CCN(C(=O)c3c(F)cccc3F)CC2)C1               80
2  O=C(Nc1ccc(OC(F)(F)F)cc1)N1CCC2(CCN(C(=O)c3ccco3)CC2)C1               78
3  Cc1cc(C(=O)N2CCC3(CCN(C(=O)Nc4ccc(OC(F)(F)F)cc4)C3)CC2)no1               82
